Listing of recorded Fold-change determined at compound concentration 100 μM by entry.
- TARGET_UNDER_TEST: PAPD5 (Homo sapiens)
- Construct: made in house
- EXPERIMENT_SUMMARY: High-throughput luminescence (KinaseGlo) RNA polyadenylation assay, ATP utilization by recombinant PAPD5
- Format: biochemical
- STUDY_CONDITIONS: Table 4 (entries of Table 5); 100 μM compound; ratio of luminescence with inhibitor to DMSO, higher = higher inhibition
- Description: Optimal conditions for an in vitro RNA polyadenylation assay using recombinant PAPD5, ATP and an oligonucleotide substrate were identified. The HTS assay involved ATP utilization by PAPD5, which reads out as a decreased luminescence signal produced by luciferase (KinaseGlo, Promega, Madison, WI). 100 nl of compound dissolved in DMSO was transferred to each well of the assay plate via pin transfer. […] The fold change was the ratio of luminescence from a sample with inhibitor compared to that with DMSO. […]
Could you keep your reply to the number by itself?

{"COMPOUND": "O=c1c2c([nH]c3nc(CNc4ccccc4F)nn13)CCC2 [Entry 153]", "EXPERIMENTAL_VALUE": 1.259}

Ask: Checklist item: Fold-change determined at compound concentration 100 μM tested on PAPD5 (Homo sapiens), entry c1cc(CNc2ncnc3sc4c(c23)CCCC4)ccn1 [Entry 41] , value?
Result: 2.279

Ask: Checklist item: Fold-change determined at compound concentration 100 μM tested on PAPD5 (Homo sapiens), entry COc1ccc(C2CC(=O)N3CN(C4CCCCC4)CSC3=C2C#N)cc1 (stereo not drawn) [Entry 194] , value?
Result: 1.613

Ask: Checklist item: Fold-change determined at compound concentration 100 μM tested on PAPD5 (Homo sapiens), entry O=C(NC1CC1)c1ccc(Cn2c(SCc3ccccc3Cl)nc3ccncc32)cc1 [Entry 202] , value?
Result: 1.361

Ask: Checklist item: Fold-change determined at compound concentration 100 μM tested on PAPD5 (Homo sapiens), entry Cc1nn(CC(=O)O)c(=O)c2cc3cc(F)ccc3n12 [Entry 214] , value?
Result: 1.213

Ask: Checklist item: Fold-change determined at compound concentration 100 μM tested on PAPD5 (Homo sapiens), entry COc1ccc(-c2[nH]nc3nc(-c4cc(OC)c(OC)c(OC)c4)cc(C(=O)O)c23)cc1 [Entry 141] , value?
Result: 1.882

Ask: Checklist item: Fold-change determined at compound concentration 100 μM tested on PAPD5 (Homo sapiens), entry Cc1ccc(Cn2c(SCc3ccc(C(=O)O)cc3)nc3cccnc32)cc1 [Entry 238] , value?
Result: 1.238

Ask: Checklist item: Fold-change determined at compound concentration 100 μM tested on PAPD5 (Homo sapiens), entry O=C(NCc1ccccn1)C1CCCN(c2ncnc3c2oc2ccccc23)C1 (stereo not drawn) [Entry 37] , value?
Result: 1.218

Ask: Checklist item: Fold-change determined at compound concentration 100 μM tested on PAPD5 (Homo sapiens), entry CC(C)c1ccc(C2CC(=O)N3CN(C4CCCCC4)CSC3=C2C#N)cc1 (stereo not drawn) [Entry 195] , value?
Result: 1.228

* * *

- TARGET_UNDER_TEST: PAPD5 (Homo sapiens, UniProt Q8NDF8)
- Construct: made in house
- Sequence (Q8NDF8 68-698 isoform Q8NDF8-5): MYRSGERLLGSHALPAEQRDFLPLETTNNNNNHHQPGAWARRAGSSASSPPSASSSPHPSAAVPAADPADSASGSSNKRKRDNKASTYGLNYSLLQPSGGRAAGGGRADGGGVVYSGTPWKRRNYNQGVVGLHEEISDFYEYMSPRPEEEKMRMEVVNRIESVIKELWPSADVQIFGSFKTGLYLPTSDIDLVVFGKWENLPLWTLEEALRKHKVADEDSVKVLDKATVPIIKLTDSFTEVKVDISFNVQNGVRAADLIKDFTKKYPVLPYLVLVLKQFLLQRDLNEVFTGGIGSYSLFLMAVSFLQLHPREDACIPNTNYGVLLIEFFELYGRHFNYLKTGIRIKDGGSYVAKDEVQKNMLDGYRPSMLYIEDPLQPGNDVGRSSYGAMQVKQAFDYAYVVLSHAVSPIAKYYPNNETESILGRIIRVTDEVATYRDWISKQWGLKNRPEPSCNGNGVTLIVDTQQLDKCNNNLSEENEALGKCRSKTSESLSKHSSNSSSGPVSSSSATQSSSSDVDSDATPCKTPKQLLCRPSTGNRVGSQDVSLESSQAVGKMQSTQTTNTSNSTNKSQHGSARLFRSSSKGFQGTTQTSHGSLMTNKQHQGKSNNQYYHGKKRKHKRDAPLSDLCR
- EXPERIMENT_SUMMARY: High-throughput luminescence (KinaseGlo) RNA polyadenylation assay, ATP utilization by recombinant PAPD5
- Type: biochemical
- STUDY_CONDITIONS: Table 4 (entries of Table 5); 100 μM compound; ratio of luminescence with inhibitor to DMSO, higher = higher inhibition
- Description: Optimal conditions for an in vitro RNA polyadenylation assay using recombinant PAPD5, ATP and an oligonucleotide substrate were identified. The HTS assay involved ATP utilization by PAPD5, which reads out as a decreased luminescence signal produced by luciferase (KinaseGlo, Promega, Madison, WI). 100 nl of compound dissolved in DMSO was transferred to each well of the assay plate via pin transfer. […] The fold change was the ratio of luminescence from a sample with inhibitor compared to that with DMSO. […]
QUANTITY: Fold-change determined at compound concentration 100 μM
Could you keep your reply to the number by itself?

// solved cases for Fold-change determined at compound concentration 100 μM follow
{"COMPOUND": "CCCCN(CCCC)CCCNC(=O)c1ccc2c(c1)sc1nc(-c3ccc(OC)cc3)cn12 [Entry 186]", "EXPERIMENTAL_VALUE": 1.531}
{"COMPOUND": "O=C1c2cnccc2CN1c1cc(F)ccc1F [Entry 212]", "EXPERIMENTAL_VALUE": 1.799}
{"COMPOUND": "COc1cccc(CNC(=O)Nc2cn(CC(C)C)c(=O)c3ccccc23)c1 [Entry 60]", "EXPERIMENTAL_VALUE": 1.621}

Ask: Which Fold-change determined at compound concentration 100 μM value belongs to COCc1c(Br)c(C)nc2sc3c(=O)n(-c4ccccc4C(=O)OC)nnc3c12 [Entry 167] ?
Result: 1.995

Ask: Which Fold-change determined at compound concentration 100 μM value belongs to COc1ccc(NS(=O)(=O)c2cc3[nH]c(=O)c(=O)[nH]c3cc2C)cc1Cl [Entry 135] ?
Result: 1.347

Ask: Which Fold-change determined at compound concentration 100 μM value belongs to Cc1ccc(-n2nc3c(=O)n(CCCC(=O)NCc4ccccc4C)nc(C)c3c2C)cc1 [Entry 240] ?
Result: 1.206

Ask: Which Fold-change determined at compound concentration 100 μM value belongs to O=S(=O)(Nc1ccc2nnc(-c3ccccc3)n2n1)c1ccc(Cl)cc1 [Entry 51] ?
Result: 1.825

Ask: Which Fold-change determined at compound concentration 100 μM value belongs to COc1ccc(Cc2nccc3cc(OC)c(OC)cc23)cc1OC [Entry 237] ?
Result: 1.362

Ask: Which Fold-change determined at compound concentration 100 μM value belongs to O=C(Nc1c(-c2ccccc2)nc2ccccn12)c1ccc(Br)cc1 [Entry 191] ?
Result: 1.296

* * *

Listing of recorded Fold-change determined at compound concentration 100 μM by entry.
- TARGET_UNDER_TEST: PAPD5 (Homo sapiens)
- Construct: made in house
- EXPERIMENT_SUMMARY: High-throughput luminescence (KinaseGlo) RNA polyadenylation assay, ATP utilization by recombinant PAPD5
- Assay type: biochemical
- STUDY_CONDITIONS: Table 4 (entries of Table 5); 100 μM compound; ratio of luminescence with inhibitor to DMSO, higher = higher inhibition
- Method: Optimal conditions for an in vitro RNA polyadenylation assay using recombinant PAPD5, ATP and an oligonucleotide substrate were identified. The HTS assay involved ATP utilization by PAPD5, which reads out as a decreased luminescence signal produced by luciferase (KinaseGlo, Promega, Madison, WI). 100 nl of compound dissolved in DMSO was transferred to each well of the assay plate via pin transfer. […] The fold change was the ratio of luminescence from a sample with inhibitor compared to that with DMSO. […]
Could you keep your reply to the number by itself?

Ask: Which Fold-change determined at compound concentration 100 μM value belongs to NC(=O)CN1c2ccc(F)cc2-c2ccccc2S1(=O)=O ?
Result: 1.249

Ask: Which Fold-change determined at compound concentration 100 μM value belongs to COc1ccc(NC(=O)c2ccc3c(SCC(=O)O)c4c(nc3c2)CCC4)c(OC)c1 ?
Result: 1.253

Ask: Which Fold-change determined at compound concentration 100 μM value belongs to CC(C)n1cnc2c(Nc3ccc(C(=O)O)cc3)nc(Cl)nc21 ?
Result: 1.393

Ask: Which Fold-change determined at compound concentration 100 μM value belongs to CCOC(=O)C1CCN(c2nnc(Cc3ccncc3)c3ccccc23)CC1 ?
Result: 1.807

Ask: Which Fold-change determined at compound concentration 100 μM value belongs to Cc1c2c(=O)n(-c3nc4ccccc4s3)[nH]c2cc(=O)n1CCc1cnc[nH]1 ?
Result: 1.563

* * *

- TARGET_UNDER_TEST: PAPD5 (Homo sapiens)
- Construct: made in house
- EXPERIMENT_SUMMARY: High-throughput luminescence (KinaseGlo) RNA polyadenylation assay, ATP utilization by recombinant PAPD5
- Assay type: biochemical
- STUDY_CONDITIONS: Table 4 (entries of Table 5); 33 μM compound; ratio of luminescence with inhibitor to DMSO
Listing of recorded Fold-change determined at compound concentration 33 μM by entry.
Could you keep your reply to the number by itself?

{"COMPOUND": "CC(Oc1ccc2c3c(c(=O)oc2c1)CCC3)C(=O)O (stereo not shown) [Entry 131]", "EXPERIMENTAL_VALUE": 1.195}
{"COMPOUND": "c1cc(CNc2ncnc3sc4c(c23)CCCC4)ccn1 [Entry 41]", "EXPERIMENTAL_VALUE": 1.621}
{"COMPOUND": "O=C(O)C1CCCN(c2nc3c(-c4ccccc4)csc3c(=O)[nH]2)C1 (stereo not shown) [Entry 39]", "EXPERIMENTAL_VALUE": 1.19}
{"COMPOUND": "Cc1c2c(=O)n(-c3nc4ccccc4s3)[nH]c2cc(=O)n1Cc1ccc(C(=O)O)cc1 [Entry 177]", "EXPERIMENTAL_VALUE": 1.053}
{"COMPOUND": "CCOc1cccc2c1N[C@@H](c1ccc(C(=O)O)cc1)[C@H]1CC=C[C@@H]21 [Entry 101]", "EXPERIMENTAL_VALUE": 1.265}
{"COMPOUND": "Cc1cc(Cl)ccc1NS(=O)(=O)c1cc2[nH]c(=O)c(=O)[nH]c2cc1C [Entry 134]", "EXPERIMENTAL_VALUE": 1.124}

Ask: Which Fold-change determined at compound concentration 33 μM value belongs to O=c1c2c([nH]c3nc(CNc4ccccc4F)nn13)CCC2 [Entry 153] ?
Result: 1.077

Ask: Which Fold-change determined at compound concentration 33 μM value belongs to CCCCN(CCCC)CCCNC(=O)c1ccc2c(c1)sc1nc(-c3ccc(OC)cc3)cn12 [Entry 186] ?
Result: 1.163

Ask: Which Fold-change determined at compound concentration 33 μM value belongs to O=S(=O)(Nc1ccc2nncn2n1)c1ccc(Br)cc1 [Entry 49] ?
Result: 1.105

Ask: Which Fold-change determined at compound concentration 33 μM value belongs to O=C(O)c1cccn2c(=O)c3c4c(sc3nc12)CCCC4 [Entry 215] ?
Result: 1.074

Ask: Which Fold-change determined at compound concentration 33 μM value belongs to O=c1oc2cc(O)c(O)cc2c2c1CCCC2 [Entry 118] ?
Result: 1.195

Ask: Which Fold-change determined at compound concentration 33 μM value belongs to O=c1oc2cc(OCc3nnn[nH]3)c(Cl)cc2c2c1CCC2 [Entry 133] ?
Result: 1.186

Ask: Which Fold-change determined at compound concentration 33 μM value belongs to CC(C)C(CO)Nc1nc(Nc2ccc(C(=O)O)c(Cl)c2)c2ncn(C(C)C)c2n1 (stereo in doubt) [Entry 46] ?
Result: 1.079

Ask: Which Fold-change determined at compound concentration 33 μM value belongs to COc1ccc(NC(=O)c2ccc3c(SCC(=O)O)c4c(nc3c2)CCCC4)c(OC)c1 [Entry 88] ?
Result: 1.082

Ask: Which Fold-change determined at compound concentration 33 μM value belongs to Clc1ccc(Nc2nnc(Cc3ccncc3)c3ccccc23)cc1 [Entry 52] ?
Result: 1.133

Ask: Which Fold-change determined at compound concentration 33 μM value belongs to COc1cccc(C(=O)Nc2nc3nc(-c4ccccc4)cc(=O)n3[nH]2)c1 [Entry 140] ?
Result: 1.329

Ask: Which Fold-change determined at compound concentration 33 μM value belongs to CCOCCCNC(=O)Cn1cc2c(n1)-c1c(oc(C(=O)N3CCCC3)c1C)CC2 [Entry 169] ?
Result: 1.455

Ask: Which Fold-change determined at compound concentration 33 μM value belongs to COc1cc(Cl)c(NS(=O)(=O)c2cc3[nH]c(=O)c(=O)[nH]c3cc2C)c(OC)c1 [Entry 138] ?
Result: 1.161

Ask: Which Fold-change determined at compound concentration 33 μM value belongs to O=c1nc(SCc2ccc(F)cc2)[nH]c2nc[nH]c12 [Entry 162] ?
Result: 1.153

Where do these numbers come from? They come from patent US12171755B2.
